This collection of values is drawn from a melting point compilation (Tetko et al.; mined from patent text by program, amines drawn as free bases though some values may be those of a salt).

Measure: melting point

In the examples that follow, each entry is paired with its recorded melting point.
Compound	Measure	Meas value
CCN1CCN(CCc2ccc(-c3ccc4c(Nc5cc(OC)c(Cl)cc5Cl)c(C#N)cnc4c3)cc2)CC1	melting point	75 to 78 °C
COc1cc(C2c3cc4c(cc3C(NC3=CC(=O)N(Cc5ccc(C(F)(F)F)cc5)C3=O)C3COC(=O)C23)OCO4)cc(OC)c1O (centres undefined)	melting point	184 to 186 °C
CC(C)(CCC#N)c1ccc(C(=O)Nc2cn3cc(-n4ccnc4)ccc3n2)cc1	melting point	233 to 234 °C
N#CC=Cc1ccc(C(=O)O)cc1	melting point	281 °C
ClC12CC3CC(CC(C3)C1=C1C3CC4CC(C3)CC1C4)C2	melting point	142 to 143 °C
N#Cc1ccc(CN2CCN(c3cc(-c4ccccc4)c4ccc(=O)ccn34)CC2)cc1	melting point	196 °C
CCCCc1ccc(-c2ccc(CCc3ccc(Cl)cc3)cc2)c(F)c1	melting point	49 °C
COC(=O)c1cc2cc(Br)ccc2nc1Cl	melting point	176 to 177 °C
COC(=O)C1=C(C)Nc2nc(N3CCOCC3)nc(N3CCOCC3)c2C1c1ccc([N+](=O)[O-])cc1 (centres undefined)	melting point	236 °C
C=CCn1c(=O)n(CCCCO)c2nc(N)nc(Cl)c21	melting point	132 to 133 °C

Task item: Give reported melting point value for `CNC(=O)NN=C(c1ccc([N+](=O)[O-])cc1)c1cc2c(cc1C[C@H](C)O)OCO2`
Reply: 238 °C

Task item: Give reported melting point value for `COc1ccc(-c2nc(-c3[nH]cc(C)c3C)[nH]c2-c2ccc(OC)cc2)cc1`
Reply: 134 °C

---

List of melting point values.

In the examples that follow, each entry is paired with its recorded melting point.
Compound	melting point
COc1ccccc1Nc1cc(C(=O)Nc2ccccc2)ccc1OC	155 to 156 °C
COc1ccc(N(c2ccc(C=Cc3ccc4ccc5cccc6ccc3c4c56)cc2)c2ccc(OC)cc2)cc1	160 °C
NC(=O)c1ccc(F)c2c1CC(NCCCc1c[nH]c3ccc(F)cc13)CO2 (stereo not given)	122 °C
O=C1c2ccccc2C(=O)N1Cc1ccc(C2=COC(c3cc(Cl)cc(Cl)c3)(C(F)(F)F)C2)cc1Cl (stereo not given)	99.7 °C
O=C(c1ccccc1OCCCCl)c1cccc2[nH]ccc12	94 °C

Here's the next entry for you.
Task item: Give reported melting point value for `CC(C)(O)C(=O)Nc1ccc(Nc2ccccc2)cc1`
Reply: 171 to 174 °C

---

Measure: melting point

In the examples that follow, each entry is paired with its recorded melting point.
Molecule	melting point
O=C(O)c1ccc(CCOCCCCCCBr)s1	60 to 61 °C
CN(C)CC(=O)Nc1cccc2nc(NC3CCc4cc(F)ccc43)ccc12 (racemic)	164 °C
COC(=O)c1ccc(/C=C(\C)c2ccc3c(c2)C(C)(C)CCO3)cc1	92 to 95 °C
O=c1cc(-c2ccccc2)c2c(O)cc(O)cc2o1	179 to 182 °C
O=C(O)c1ccc2[nH]c3c(c2c1)CCCCCC3	240 to 241 °C
Cc1nc(-c2ccc(C(=N)NO)cc2)sc1C(=O)N[C@H](C)[C@](O)(Cn1cncn1)c1ccc(F)cc1F	135 to 148 °C
Oc1ccc(-c2ncn(CC(O)(Cn3cncn3)c3ccc(F)cc3F)n2)cc1 (stereo not given)	120 to 127 °C
CCn1cc(C(=O)O)c(=O)c2cnc(N3CCN(Cc4ccccc4)CC3)nc21	207 °C
COc1ccc(Cl)cc1CC1CNC(=O)CN(S(=O)(=O)c2ccc(Cl)cc2)C1=O (stereo not given)	110 to 112 °C
Cc1c(Cc2cccc(C(F)(F)F)c2)sc2c(-c3cccc(C(N)=O)c3)cccc12	190 to 191 °C

Task item: Give reported melting point value for `CCCCCCCCCCCCCCCCCCOc1ccc(C(=O)O)o1`
Reply: 117 to 118 °C
